Origin of measurements: patent US20160130302A1

Biological target: rat δPKC (endogenous, in perfused rat hearts) (rat)
Assay: cell-based or functional assay
property name: p-JNK/total JNK

p196 (ALSTEA), TAT-conjugated (peptide) | 0.9

IN: p-JNK/total JNK lookup needed for p193 (ALATER), TAT-conjugated (peptide) , thanks.
OUT: 0.7

IN: Let us now turn to p192 (AASTER), TAT-conjugated (peptide)
OUT: 0.7

IN: Let us now turn to p195 (ALSTAR), TAT-conjugated (peptide)
OUT: 0.7

IN: Let us now turn to p194 (ALSAER), TAT-conjugated (peptide)
OUT: 0.6
